Molecular target: Sentrin-specific protease 7 (Homo sapiens) (UniProt Q9BQF6)
Experiment: SENP7 protease inhibitors, primary screen, biochemical, luminescence, uHTS (AID 434973);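 note: plate controls were DMSO with enzyme for no effect and no enzyme buffer wells for full effect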
Conditions: recombinant SENP7, Z-RLRGG-aminoluciferin luminescence, 40 min; at 5 µM
The campaign covered roughly 330,000 compounds. About 4,900 (1.5%) were called active.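 Rule for the calls: active = inhibition above about 50% at the single test dose (limit read from the data); inactive = the rest.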 What follows is part of a selection rich in actives, with near analogues and random picks from the rest.
Form entry, call: pick from YES = active, NO = inactive

1) CCN(CC)S(=O)(=O)c1ccc(C(=O)N2CCN(C3=NS(=O)(=O)c4ccccc43)CC2)cc1 : NO
2) O=C(Nc1ccccc1)c1ccc2c(c1)OCO2 : YES
3) CN1CCN(c2ccc(NC(=O)c3ccc4c(c3)OCCO4)cc2Cl)CC1 : NO

Recorded call for O=C(Oc1ccccc1)Oc1ccc2c(c1)oc(=O)c1ccccc12 ?
NO

Which outcome was entered for the compound CCC(C)C(NC(=O)C1CCC(=O)N1C(=O)OCc1ccccc1)C(=O)NC(C(=O)N1CCCC1C(N)=O)C(C)CC (stereo not given) in this test?
NO

Outcome logged for O=C(Nc1ccc(Cl)cc1)/C(=C1\CCCN1)[N+](=O)[O-] in this assay:
NO

====

Molecular target: Sentrin-specific protease 7 (Homo sapiens) (UniProt Q9BQF6)
Assay: SENP7 protease inhibitors, primary screen, biochemical, luminescence, uHTS (AID 434973)
Details: recombinant SENP7, Z-RLRGG-aminoluciferin luminescence, 40 min; at 5 µM; stronger effect = higher value
Out of some 330,000 compounds screened, about 4,900 (1.5%) were called active. The list comes from a sample in which actives are over-represented; it also holds close analogues and randomly drawn compounds.
Consider the following compounds; for each one, report its inhibition.
Numbers only, in %.

1. Cc1ccc(NC(=O)c2sccc2C)cc1[N+](=O)[O-] : 83.7
2. COc1cccc(NC(=O)CN(C)CC(=O)Nc2ccc3c(c2)CCC3)c1 : 10.1
3. COc1cccc(C(=O)Nc2nnc(S(=O)(=O)N3CCCCC3)s2)c1 : 11.4
4. Cc1ccccc1C(=O)N1CCN(c2ccc(NC(=O)c3cccs3)cc2)CC1 : -2.29
5. O=C(Nc1ccc(N2CCOCC2)cc1)c1cccc(S(=O)(=O)N2CCOCC2)c1 : 8.65

Please give inhibition, item by item, for the list that follows.
1. COc1cccc(C(=O)Nc2ccc(N3CCCC3)cc2)c1
2. CCOc1ccc(C(=O)Nc2cccc(SC)c2)cc1
3. CCOc1ccc(C(=O)Nc2cccc(-c3ccc4nncn4n3)c2)cc1
4. Cc1ccccc1C(=O)NC(=S)Nc1ccc(N2CCN(C(=O)c3ccccc3)CC2)cc1
5. CCN(CC)C(=O)Cn1cc(S(=O)(=O)CC(=O)NCc2ccc3c(c2)OCO3)c2ccccc21
6. COC(=O)c1cccc(-n2[nH]nnc2=S)c1

99.4
88.7
-7.35
-6.96
-2.79
8.95

====

Molecular target: Sentrin-specific protease 7 (Homo sapiens) (UniProt Q9BQF6)
Experiment: SENP7 protease inhibitors, primary screen, biochemical, luminescence, uHTS (AID 434973)
Conditions: recombinant SENP7, Z-RLRGG-aminoluciferin luminescence, 40 min; at 5 µM
The campaign covered roughly 330,000 compounds. About 4,900 (1.5%) were called active.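 The calls were made as follows: active = inhibition above about 50% at the single test dose (limit read from the data); inactive = the rest.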 This excerpt belongs to a sample that is enriched for actives.
Would you mind answering with one of these outcomes? active, inactive

Before answering, review these 8 worked examples.
1. Clc1ccc(-c2cc(-c3ccccn3)on2)c(Cl)c1 : active
2. Cc1nc(-c2ccc(F)cc2)c(CC(=O)N(C)CC(=O)Nc2c(C)cccc2C)s1 : inactive
3. CCCc1cc(=O)oc2c(C)c(OCC(=O)NCc3ccccn3)ccc12 : inactive
4. O=C(O)Cc1ccc(NC(=O)Nc2cccc3ccccc23)cc1 : inactive
5. COc1ccc(OCC(O)CN(C)C(=O)C(C)Oc2ccccc2)cc1 (stereo not given) : inactive
6. COc1ccc([N+](=O)[O-])cc1-c1nc2ccccc2nc1-c1ccccc1 : inactive
7. FC(F)(F)c1ccnc(Oc2ccc(C3=NCCS3)cc2)c1 : active
8. c1c2c(cc3sc(N4CCCCC4)nc13)OCCO2 : active

Called result for O=C1c2ccccc2C(=O)N1Cc1cc(-c2ccccc2Cl)no1
inactive

Record lookup: outcome of this test for Cc1nc(N2CCCCC2)sc1C=O ?
inactive

Recorded test call requested for CN(C)CCCN(C(=O)c1ccc(S(=O)(=O)N2CCCCCC2)cc1)c1nc2cc3c(cc2s1)OCCO3
inactive

====

Target: Sentrin-specific protease 7 (Homo sapiens) (UniProt Q9BQF6)
Experiment: SENP7 protease inhibitors, primary screen, biochemical, luminescence, uHTS (AID 434973);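 note: plate controls were DMSO with enzyme for no effect and no enzyme buffer wells for full effect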
Conditions: recombinant SENP7, Z-RLRGG-aminoluciferin luminescence, 40 min; at 5 µM; stronger effect = higher value
Hit rate of the full screen: of about 330,000 compounds, about 4,900 (1.5%) were called active. The entries come from a sample that favours actives as a whole.
Value kind: inhibition (%)
Answers are plain numbers, in %.

Solved entries (count: 4):
1) Cc1ccc(C(=O)C(=S)N2CCOCC2)cc1 : -2.91
2) O=C1C(=O)N(CCCN2CCOCC2)C(c2ccc([N+](=O)[O-])cc2)/C1=C(\O)c1ccc2c(c1)OCCO2 (stereo not given) : 56.5
3) CN(c1ccccc1)S(=O)(=O)c1ccc(Cl)c(C(=O)OCC(=O)N2CCOCC2)c1 : 3.02
4) CSCCC(NC(=O)C1CCC(C)CC1)C(=O)NCc1ccco1 (stereo not given) : 0.735

Count: 6. Required value per item: inhibition.
1. CSCCC1NC2(C(=O)Nc3ccc(Cl)cc32)[C@@H]2C(=O)N(C3CCCC3)C(=O)[C@H]12 (stereo not given in full)
2. COc1ccc(C2/C(=C(/O)c3ccc(OC(C)C)cc3)C(=O)C(=O)N2CCCN2CCOCC2)cc1 (stereo not given)
3. CCC(C)C(N=C1NS(=O)(=O)c2ccccc21)C(=O)N1CCC(C)CC1 (stereo not given)
4. Cc1ccc(-n2nc3ccc(NC(=O)/C=C/c4ccco4)cc3n2)cc1C
5. CN(Cc1nc2ccccc2s1)C(=O)c1ccc(F)cc1
6. Cc1cccc(C(=O)OCC(=O)Nc2ccc(F)cc2)c1

1. 10.2
2. -3.1
3. 2.08
4. -3.4
5. 0.624
6. -5.6

====

Target: Sentrin-specific protease 7 (Homo sapiens)
Assay: SENP7 protease inhibitors, primary screen, biochemical, luminescence, uHTS (AID 434973);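 note: plate controls were DMSO with enzyme for no effect and no enzyme buffer wells for full effect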
Settings: recombinant SENP7, Z-RLRGG-aminoluciferin luminescence, 40 min; at 5 µM; stronger effect = higher value
In all, about 330,000 compounds went through this assay and about 4,900 (1.5%) were called active. Only a selection was taken, and actives are over-represented in it overall.
Consider the following molecules; for each one, report its inhibition.

Here's what some known entries look like.
1) COc1ccccc1N=Cc1c(O)c2ccccc2oc1=O : 88% (active)
2) CCc1ccc(C(=O)COC(=O)c2ccco2)cc1 : 68.9% (active)

Each of the following entries comes with a recorded value; kindly state inhibition for each.
1. COc1ccccc1N=C(C)C1=C(O)COC1=O
2. Nc1nc(SCc2cccc(Br)c2)n[nH]1
3. CC(C)Cc1ccc(S(=O)(=O)N2CCN(C(=O)c3ccco3)CC2)cc1

["-4.17% (inactive)", "0.492% (inactive)", "3.59% (inactive)"]

Could you please provide reported inhibition for COc1cc(N=Cc2c(O)c3ccccc3oc2=O)c(OC)cc1Cl ? Thanks!
-0.159% (inactive)

====

Target: Sentrin-specific protease 7 (Homo sapiens)
Experiment: SENP7 protease inhibitors, primary screen, biochemical, luminescence, uHTS (AID 434973);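 note: plate controls were DMSO with enzyme for no effect and no enzyme buffer wells for full effect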
Conditions: recombinant SENP7, Z-RLRGG-aminoluciferin luminescence, 40 min; at 5 µM; stronger effect = higher value
Screen size: about 330,000 compounds; about 4,900 (1.5%) were called active. Shown is part of a subset that was picked to be rich in actives.
Value kind: inhibition (%)
Give bare numbers, in %.

1. CN(C)c1nnnn1-c1ccc(Cl)cc1 : -4.93
2. CC[N+]1(CC)CC2=Cc3ccccc3CC2C1 (stereo not drawn) : 5.4
3. CC(C)(C)NC(=O)c1ccc(Cn2cc(C(F)(F)F)ccc2=O)cc1 : -6.25
4. c1ccc(-n2nc3ccccc3n2)cc1 : 1.86

For every item in the list below, what is its measured inhibition?
1. NCCCC[C@@H]1NC(=O)[C@H](CCC(=O)O)NC(=O)c2cc([N+](=O)[O-])cc(I)c2NCC[C@@H](C(N)=O)NC1=O
2. CC(=O)N1c2ccc(S(=O)(=O)N3CCCC(C(=O)Nc4ccc(C)cc4C)C3)cc2CC1C (stereo not drawn)
3. COCn1c(C(O)c2ccccc2)cc2ccccc21 (stereo not drawn)
4. Nc1ccc2nn(-c3ccc(Cl)cc3)nc2c1
5. Cc1cc(C)c(OCC(=O)N(Cc2cccs2)C2CCS(=O)(=O)C2)c(C)c1 (stereo not drawn)
6. Cc1ccc(CN2CCN(/N=C/c3cccnc3)CC2)c(C)c1
7. O=C(c1ccc(F)cc1)n1c(=S)nc2ccccn21

1: 0.545; 2: 7.52; 3: 12.5; 4: 57.3; 5: 0.829; 6: 4.31; 7: 96.3

Take each entry in turn and give its inhibition.
1. CSc1nsc(NC(=O)Nc2ccccc2)n1
2. O=C(Nc1cc(=O)[nH]c2ncnn12)c1ccccc1Cl
3. O=C(N[C@@H](Cc1ccccc1)C(=O)OCc1ccccc1)c1nc[nH]c1C(=O)N[C@@H](Cc1ccccc1)C(=O)OCc1ccccc1

34.9
10.9
4.7

State recorded inhibition for all listed compounds.
1. Cc1cccc(NC(=O)c2ccc3ccccc3n2)n1
2. COc1ccc(NC(=O)NN2CCN(C)CC2)c(OC)c1
3. O=C(COC(=O)c1ccc(F)cc1)Nc1ccc2c(c1)OCO2
4. O=C(NCc1cccnc1)c1cccnc1Sc1ccc(Cl)cc1
5. CC(OC(=O)c1cc2ccccc2[nH]1)C(=O)N(C)c1ccccc1 (stereo not drawn)

78.7
0.214
-9.15
2.66
-10.4

Need inhibition for each of these compounds.
1. COCc1nnc(NC(=O)c2ccc3c(c2)OCO3)s1
2. O=[N+]([O-])c1cc(C(F)(F)F)ccc1NN=C1CCCC1
3. CCN(CC)S(=O)(=O)c1ccc(N(C)Cc2ccc(C(F)(F)F)cc2)nc1
4. O=C(COC(=O)c1ccc2c(c1)OCCO2)NCc1ccccc1Cl

[12.1, 5.78, -1.06, -9.15]

Cited source for all entries: PubChem BioAssay AID434973
